Field: pIC50. Provide a value for each of the compounds that follow.
# MEASUREMENT TARGET: autophosphorylation of PASK at position Thr307 in Hek293 cells overexpressing PASK (Homo sapiens, UniProt Q96RG2)
# Sequence (Q96RG2 with tags, fused parts or gaps): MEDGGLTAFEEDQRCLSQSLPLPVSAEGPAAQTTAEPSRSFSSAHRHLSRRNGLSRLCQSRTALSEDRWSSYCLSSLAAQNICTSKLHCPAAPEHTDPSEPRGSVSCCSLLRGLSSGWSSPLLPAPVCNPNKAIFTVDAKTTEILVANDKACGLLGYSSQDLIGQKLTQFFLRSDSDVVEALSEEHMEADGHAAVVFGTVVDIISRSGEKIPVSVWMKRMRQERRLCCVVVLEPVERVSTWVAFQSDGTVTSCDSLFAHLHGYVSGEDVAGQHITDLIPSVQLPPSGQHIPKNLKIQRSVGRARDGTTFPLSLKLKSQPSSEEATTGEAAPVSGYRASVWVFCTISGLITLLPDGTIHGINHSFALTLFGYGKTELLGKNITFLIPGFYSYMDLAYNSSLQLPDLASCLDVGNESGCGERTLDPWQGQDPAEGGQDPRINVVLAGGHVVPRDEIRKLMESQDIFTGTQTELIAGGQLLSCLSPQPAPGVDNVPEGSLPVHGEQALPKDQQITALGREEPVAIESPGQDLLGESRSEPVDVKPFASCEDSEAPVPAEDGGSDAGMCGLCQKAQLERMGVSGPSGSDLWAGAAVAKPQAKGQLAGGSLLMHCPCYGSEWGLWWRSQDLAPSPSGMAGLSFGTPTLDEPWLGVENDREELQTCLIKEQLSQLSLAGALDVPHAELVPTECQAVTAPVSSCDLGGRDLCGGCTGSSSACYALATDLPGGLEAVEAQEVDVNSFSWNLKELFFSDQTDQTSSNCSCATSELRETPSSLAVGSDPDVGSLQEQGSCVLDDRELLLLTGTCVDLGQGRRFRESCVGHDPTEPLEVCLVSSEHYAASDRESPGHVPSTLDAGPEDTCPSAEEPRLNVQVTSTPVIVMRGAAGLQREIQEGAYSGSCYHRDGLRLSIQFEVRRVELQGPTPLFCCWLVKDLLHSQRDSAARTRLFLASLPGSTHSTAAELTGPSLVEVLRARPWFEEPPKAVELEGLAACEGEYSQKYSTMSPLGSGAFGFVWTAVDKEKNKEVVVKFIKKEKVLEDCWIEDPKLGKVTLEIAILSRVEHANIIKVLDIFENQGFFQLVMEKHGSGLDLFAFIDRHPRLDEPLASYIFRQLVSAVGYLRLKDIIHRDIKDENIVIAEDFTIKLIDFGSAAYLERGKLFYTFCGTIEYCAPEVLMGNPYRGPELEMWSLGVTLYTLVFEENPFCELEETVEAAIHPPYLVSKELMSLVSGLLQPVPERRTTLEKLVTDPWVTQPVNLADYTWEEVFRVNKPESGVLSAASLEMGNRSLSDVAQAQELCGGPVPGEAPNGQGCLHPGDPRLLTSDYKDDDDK
# ASSAY NAME: PASK autophosphorylation ELISA assay
# ASSAY SETUP: 24 h, ELISA readout
pIC50: −log10 of the molar value.

Item Cc1c(-c2cnn3ccc(-n4cc(C(=O)O)cn4)cc23)c(C(F)(F)F)nn1C has what recorded pIC50?
5.30 to 6.00

Item COc1nc(-c2ccn3ncc(-c4c(C(F)(F)F)nn(C)c4C)c3c2)sc1C(=O)O has what recorded pIC50?
5.30 to 6.00

Item CCOc1nc(-c2ccn3ncc(-c4c(C)nn(C)c4C)c3c2)sc1C(=O)O has what recorded pIC50?
6.00 to 6.30

Item Cc1nn(C)c(C)c1-c1cnn2ccc(-c3cc(C(N)=O)co3)cc12 has what recorded pIC50?
5.30 to 6.00

Item Cc1nn(C)c(C)c1-c1cnn2ccc(-c3cc(C(=O)O)co3)cc12 has what recorded pIC50?
6.00 to 6.30

Item Cc1nn(C(F)F)c(C)c1-c1cnn2ccc(-n3cc(C(=O)O)cn3)cc12 has what recorded pIC50?
< 5.30

Item COc1nc(-c2ccn3ncc(-c4c(C)nn(C)c4C)c3c2)sc1C(=O)O has what recorded pIC50?
< 5.30

Item COc1nc(-c2ccn3ncc(-c4c(C)nn(CC(F)(F)F)c4C)c3c2)sc1C(=O)O has what recorded pIC50?
< 5.30

Item Cc1noc(C)c1-c1cnn2ccc(-c3cc(C(=O)O)c(C4CC4)o3)cc12 has what recorded pIC50?
5.30 to 6.00

###

Field: IC50. Provide a value for each of the molecules that follow.
# MEASUREMENT TARGET: human PASK (Homo sapiens, UniProt Q96RG2)
# Construct: purchased ThermoFisher Scientific PR7013A
# ASSAY NAME: ADP-Glo kinase assay
# Type: biochemical
# ASSAY SETUP: ADPGlo PASK kinase assay, 25 μM ATP, ZIPtide 25 μM

Item CCOc1nc(-c2ccn3ncc(-c4c(C)nn(C(F)F)c4C)c3c2)sc1C(=O)O [Cpd 72] has what recorded IC50?
0.01 to 10 nM

Item CCn1nc(C)c(-c2cnn3ccc(-n4cc(C(N)=O)c(OC)n4)cc23)c1C [Cpd 82] has what recorded IC50?
0.01 to 10 nM

Item Cc1nn(CC(F)(F)F)c(C)c1-c1cnn2ccc(-c3cc(C(=O)O)c(C4CCOCC4)o3)cc12 [Cpd 55] has what recorded IC50?
0.01 to 10 nM

Item CCOc1nc(-c2ccn3ncc(-c4c(C)nn(CC)c4C)c3c2)sc1C(=O)O [Cpd 64] has what recorded IC50?
0.01 to 10 nM

Item Cc1nn(C(C)C)c(C)c1-c1cnn2ccc(-n3cc(C(=O)O)cn3)cc12 [Cpd 52] has what recorded IC50?
0.01 to 10 nM

Item Cc1c(-c2cnn3ccc(-n4cc(C(=O)O)cn4)cc23)c(C(F)(F)F)nn1C(C)C [Cpd 76] has what recorded IC50?
0.01 to 10 nM

Item Cc1noc(C)c1-c1cnn2ccc(-c3nc(C(=O)O)co3)cc12 [Cpd 20] has what recorded IC50?
100 to 500 nM

Item Cc1nn(C(C)C)c(C)c1-c1cnn2ccc(-c3ccc(C(=O)O)o3)cc12 [Cpd 48] has what recorded IC50?
0.01 to 10 nM

Item Cc1nn(C(C)C)c(C)c1-c1cnn2ccc(-n3cc(C(=O)O)c(C(F)(F)F)n3)cc12 [Cpd 80] has what recorded IC50?
10 to 100 nM
